Values compiled from ChEMBL document CHEMBL1152108.

experimentalTarget: Angiotensin-converting enzyme (Homo sapiens)
Sequence (P12821 whole entry): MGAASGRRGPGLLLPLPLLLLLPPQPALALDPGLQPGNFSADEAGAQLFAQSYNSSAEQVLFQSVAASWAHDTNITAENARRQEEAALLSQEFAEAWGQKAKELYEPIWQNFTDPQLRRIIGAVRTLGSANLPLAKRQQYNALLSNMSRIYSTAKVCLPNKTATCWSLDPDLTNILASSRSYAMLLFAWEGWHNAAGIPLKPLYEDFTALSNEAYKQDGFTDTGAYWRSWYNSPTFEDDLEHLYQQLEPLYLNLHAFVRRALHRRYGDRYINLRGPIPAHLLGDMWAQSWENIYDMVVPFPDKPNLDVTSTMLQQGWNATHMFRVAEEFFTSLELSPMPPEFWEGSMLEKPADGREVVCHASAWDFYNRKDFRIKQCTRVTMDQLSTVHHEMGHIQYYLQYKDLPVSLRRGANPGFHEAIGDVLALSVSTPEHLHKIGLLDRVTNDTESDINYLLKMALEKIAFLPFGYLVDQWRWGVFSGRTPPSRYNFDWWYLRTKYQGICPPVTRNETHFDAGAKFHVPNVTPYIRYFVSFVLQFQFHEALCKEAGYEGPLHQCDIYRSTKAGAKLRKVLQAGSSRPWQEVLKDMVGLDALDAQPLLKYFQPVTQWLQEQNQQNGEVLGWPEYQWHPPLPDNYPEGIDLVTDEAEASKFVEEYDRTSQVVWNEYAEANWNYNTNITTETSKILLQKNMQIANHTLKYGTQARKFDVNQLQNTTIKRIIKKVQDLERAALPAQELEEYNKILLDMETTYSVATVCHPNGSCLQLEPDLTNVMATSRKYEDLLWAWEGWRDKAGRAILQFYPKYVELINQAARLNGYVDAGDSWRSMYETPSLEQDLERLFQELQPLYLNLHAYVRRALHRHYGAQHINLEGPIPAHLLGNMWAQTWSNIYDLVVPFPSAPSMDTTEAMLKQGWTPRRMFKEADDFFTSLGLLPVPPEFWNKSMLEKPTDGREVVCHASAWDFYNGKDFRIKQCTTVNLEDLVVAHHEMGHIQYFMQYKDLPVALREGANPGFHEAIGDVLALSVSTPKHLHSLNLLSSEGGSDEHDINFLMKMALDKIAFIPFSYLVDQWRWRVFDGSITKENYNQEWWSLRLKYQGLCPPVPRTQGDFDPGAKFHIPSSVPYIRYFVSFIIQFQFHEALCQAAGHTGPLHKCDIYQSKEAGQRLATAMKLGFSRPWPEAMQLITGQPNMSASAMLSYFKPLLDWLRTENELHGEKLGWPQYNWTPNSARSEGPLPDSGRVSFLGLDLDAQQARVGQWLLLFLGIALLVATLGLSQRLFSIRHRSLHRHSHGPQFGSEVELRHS
Labelling: IC50 reported below 20 nM becomes t; at or above becomes f.

Answered examples (4):
compoundStructure	labelClass
O=C(O)CN1C(=O)[C@@H](NC(=O)[C@H](S)Cc2ccccc2)CCc2ccccc21	f
O=C(O)CN1CCCC[C@H](NC(=O)[C@@H](S)Cc2ccccc2)C1=O	f
C[C@H](S)C(=O)N[C@H]1CCc2ccccc2N(CC(=O)O)C1=O	f
O=C(O)CN1C(=O)[C@H](NC(=O)[C@@H](S)Cc2ccccc2)CCc2ccccc21	f

(Q) I wonder whether `CCCC[C@H](S)C(=O)N[C@H]1CCc2ccccc2N(CC(=O)O)C1=O` has IC50 below 20 nM. Can you tell?
(A) t

(Q) I wonder whether `O=C(O)CN1C(=O)[C@@H](NC(=O)[C@@H](S)CC2CCCCC2)CCc2ccccc21` has IC50 below 20 nM. Can you tell?
(A) f

(Q) I wonder whether `C[C@H](NC(=O)[C@@H](S)Cc1ccccc1)C(=O)N(CC(=O)O)c1ccccc1` has IC50 below 20 nM. Can you tell?
(A) t
